# test.system: T1, human IL-4Rα (hIL-4Rα) monomeric protein (human, UniProt P24394 26-232, limits assumed)
# T1 construct: also called hIL-4Rα antigen; barcoded hIL-4Rα
# assay.info: barcoded-antigen count on source cell (scRNA-seq)
Exercise: state measured REGN560.L15_ab_raw for each of the binders provided.

The value of REGN560.L15_ab_raw measured for the binder Table 1 Line # 41 antibody (SP_Plasma_cell) (antibody, human IgG4, V domains shown, Cloned with human IgG4/human Igk constants for Kd; barcode counts are of the source cell's own IgG) VH: EVQLVESGGGLVQPGRSLRLSCAASGFTFDDYAMHWVRQAPGRGLEWVSGISWKGDALGYADSVKGRFTISRDNAKNSLYLQMSSLRAEDTALYYCAKDTGSYHYYYGLDVWGQGTTVTVSS VL: DIQMTQSPSSLSASVGDRVTITCRASQGIRNDLGWYQQKPGKAPERLIYAASNLQSGVPSRFSGSGSGTEFTLTISSLQPEDFATFYCLQHYSYPLTFGGGTKVEIK turned out to be 2460 counts

The value of REGN560.L15_ab_raw measured for the binder Table 1 Line # 16 antibody (BM_Plasma_cell) (antibody, human IgG4, V domains shown, Cloned with human IgG4/human Igk constants for Kd; barcode counts are of the source cell's own IgG) VH: EVQLVESGGGLVQPGRSLRLSCAASGFTFDDYGMHWVRQAPGKGLEWVSGISWNSGHIGYADSVKGRFTISRDNAKNSLNLQMNSLRAEDTALYYCAKDISSSWYGYFDLWGRGTLVTVSS VL: DIQMTQSPSSLSASVGDRVTITCRASQGISNFLAWFQQKPGKVPKLLIYAASTLQSGVPSRFSGSGSGTDFTLTISSLQPEDVATYYCQEYNSAPRTFGQGTKVEIK turned out to be 2370 counts

The value of REGN560.L15_ab_raw measured for the binder Table 1 Line # 32 antibody (SP_B_cell) (antibody, human IgG4, V domains shown, Cloned with human IgG4/human Igk constants for Kd; barcode counts are of the source cell's own IgG) VH: EVQLVESGGGLVQPGRSLRLSCAASGFTFDDYAMHWVRQAPGKGLEWVSGVNWNGVSLGYADSVKGRFTISRDNAKNSLYLQMNSLRAEDTAFYYCAKDSGSYHYYYGMDGWGQGTTVTVSS VL: DIQMTQSPSSLSASVGDRVTITCRASQGIRNDLGWYQQKPGKDPKRLIFAATNLHGGVPSRFSGGVSGTEFTLTISSLQPEDFATYYCLQHNSYPLTFGGGTKVEIK turned out to be 7910 counts
